- SYSTEM UNDER TEST: Replicase polyprotein 1ab (Severe acute respiratory syndrome coronavirus 2) (UniProt P0DTD1)
- PROTOCOL CONDITIONS: dose 5.0 µM, time 30.0 min, values are per cent of control
So I've got a bunch of compounds here, and I need their residual activity values.
Give bare numbers, in %.

Observe how each entry below is paired with its result.
| QUERY SMILES | UNIT LABEL | residual activity |
| --- | --- | --- |
| CN(C[C@H]1O[C@@H](n2cc(C#Cc3cnc4ccccc4c3)c3c(N)ncnc32)[C@H](O)[C@@H]1O)S(=O)(=O)c1ccc(Br)c([N+](=O)[O-])c1 | % | 5.4 |
| CNc1ncnc2c1ncn2[C@@H]1O[C@H](CNS(=O)(=O)c2ccc(OC)c([N+](=O)[O-])c2)[C@@H](O)[C@H]1O | % | 31.5 |
| CNc1ncnc2c1ncn2[C@@H]1O[C@H](CNS(=O)(=O)c2ccc(Br)c([N+](=O)[O-])c2)[C@@H](O)[C@H]1O | % | 33.8 |
| CCN(C[C@H]1O[C@@H](n2cnc3c(NC)ncnc32)[C@H](O)[C@@H]1O)S(=O)(=O)c1ccc(C)c([N+](=O)[O-])c1 | % | 10.9 |

[in] Note down residual activity recorded for CCN(C[C@H]1O[C@@H](n2cnc3c(NC)ncnc32)[C@H](O)[C@@H]1O)S(=O)(=O)c1ccc(OC)c(C#N)c1
[out] 4.2

---

Here we list compounds with their recorded pIC50 when tested on Replicase polyprotein 1ab (Severe acute respiratory syndrome coronavirus 2).
Give bare numbers, as −log10 of the molar value.

Field: example entries. Status: answers known.
| QUERY SMILES | pIC50 |
| --- | --- |
| CCN(C[C@H]1O[C@@H](n2cnc3c(NC)ncnc32)[C@H](O)[C@@H]1O)S(=O)(=O)c1ccc(C)c(Cl)c1 | 6.89 |
| CCN(C[C@H]1O[C@@H](n2cnc3c(NC)ncnc32)[C@H](O)[C@@H]1O)S(=O)(=O)c1ccc(OC)c(C#N)c1 | 7.21 |
| CNc1ncnc2c1ncn2[C@@H]1O[C@H](CNS(=O)(=O)c2ccc(C)c([N+](=O)[O-])c2)[C@@H](O)[C@H]1O | 5.55 |

For the next question, use this compound.
[in] # return recorded pIC50 for entry CN(C[C@H]1O[C@@H](n2cc(C#Cc3cnc4ccccc4c3)c3c(N)ncnc32)[C@H](O)[C@@H]1O)S(=O)(=O)c1ccc(Br)c([N+](=O)[O-])c1
[out] 8.46

---

- SYSTEM UNDER TEST: mRNA cap guanine-N(7) methyltransferase (Homo sapiens, UniProt O43148)
- Sequence (O43148 whole entry): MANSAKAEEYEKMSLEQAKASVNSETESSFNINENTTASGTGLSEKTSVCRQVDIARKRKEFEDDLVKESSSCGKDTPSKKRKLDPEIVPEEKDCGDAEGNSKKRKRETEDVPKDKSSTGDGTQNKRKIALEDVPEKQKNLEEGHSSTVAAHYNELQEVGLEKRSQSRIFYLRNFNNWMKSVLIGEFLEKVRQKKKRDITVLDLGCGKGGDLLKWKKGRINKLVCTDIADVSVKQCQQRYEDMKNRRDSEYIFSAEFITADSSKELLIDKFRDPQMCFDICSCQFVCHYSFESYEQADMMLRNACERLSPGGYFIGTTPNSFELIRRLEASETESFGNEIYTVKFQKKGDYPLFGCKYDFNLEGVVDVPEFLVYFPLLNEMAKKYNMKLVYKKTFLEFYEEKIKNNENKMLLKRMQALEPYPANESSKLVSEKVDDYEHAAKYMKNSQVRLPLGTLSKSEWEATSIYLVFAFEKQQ
- PROTOCOL CONDITIONS: dose 5.0 µM, time 30.0 min
Active and inactive are the calls of the source. The rule behind the calls is not given here.
RECORDED ENDPOINT: inhibition

| QUERY SMILES | inhibition |
| --- | --- |
| CCN(C[C@H]1O[C@@H](n2cnc3c(NC)ncnc32)[C@H](O)[C@@H]1O)S(=O)(=O)c1ccc(C)c(Cl)c1 | 78% |
| CCN(C[C@H]1O[C@@H](n2cnc3c(N)ncnc32)[C@H](O)[C@@H]1O)S(=O)(=O)c1ccc(OC)c(C#N)c1 | 69.5% |
| Cc1ccc(S(=O)(=O)N(C)C[C@H]2O[C@@H](n3cc(C#Cc4cnc5ccccc5c4)c4c(N)ncnc43)[C@H](O)[C@@H]2O)cc1Cl | 90.7% |
| CN(C[C@H]1O[C@@H](n2cc(C#Cc3ccccc3)c3c(N)ncnc32)[C@H](O)[C@@H]1O)S(=O)(=O)c1ccc(Br)c([N+](=O)[O-])c1 | 95.9% |

Hey, can you go through the list below and give me inhibition for every item?
1. CCN(C[C@H]1O[C@@H](n2cnc3c(NC)ncnc32)[C@H](O)[C@@H]1O)S(=O)(=O)c1ccc(C)c([N+](=O)[O-])c1
2. CCN(C[C@H]1O[C@@H](n2cnc3c(=O)[nH]cnc32)[C@H](O)[C@@H]1O)S(=O)(=O)c1ccc(OC)c([N+](=O)[O-])c1
3. COc1ccc(S(=O)(=O)N(C)C[C@H]2O[C@@H](n3cc(C#Cc4ccccc4)c4c(N)ncnc43)[C@H](O)[C@@H]2O)cc1C#N

[out]
inactive
inactive
inactive

---

- SYSTEM UNDER TEST: Replicase polyprotein 1ab (Severe acute respiratory syndrome coronavirus 2, UniProt P0DTD1)
Answer each item with its documented IC50.
Give bare numbers, in nM.

| QUERY SMILES | UNIT LABEL | IC50 |
| --- | --- | --- |
| Cc1ccc(S(=O)(=O)N(C)C[C@H]2O[C@@H](n3cc(C#Cc4cnc5ccccc5c4)c4c(N)ncnc43)[C@H](O)[C@@H]2O)cc1Cl | nM | 2.07 |
| CCN(C[C@H]1O[C@@H](n2cnc3c(=O)[nH]cnc32)[C@H](O)[C@@H]1O)S(=O)(=O)c1ccc(OC)c(C#N)c1 | nM | 4000 |
| CNc1ncnc2c1ncn2[C@@H]1O[C@H](CNS(=O)(=O)c2ccc(OC)c(C#N)c2)[C@@H](O)[C@H]1O | nM | 468 |

# input for lookup
[in] Look up and report measured IC50 for this entry: CN(C[C@H]1O[C@@H](n2cc(C#Cc3ccccc3)c3c(N)ncnc32)[C@H](O)[C@@H]1O)S(=O)(=O)c1ccc(Br)c([N+](=O)[O-])c1
[out] 17.3

---

- SYSTEM UNDER TEST: mRNA cap guanine-N(7) methyltransferase (Homo sapiens, UniProt O43148)
- PROTOCOL CONDITIONS: dose 5.0 µM, time 30.0 min
Activity calls are given as the source filed them. The calls are words filed in the database; no cut-off is given here.
RECORDED ENDPOINT: inhibition

Would you please look over these solved cases?
| QUERY SMILES | SYSTEM UNDER TEST | inhibition |
| --- | --- | --- |
| CN(C[C@H]1O[C@@H](n2cc(C#Cc3cnc4ccccc4c3)c3c(N)ncnc32)[C@H](O)[C@@H]1O)S(=O)(=O)c1ccc(Br)c([N+](=O)[O-])c1 | mRNA cap guanine-N(7) methyltransferase (Homo sapiens, UniProt O43148) | 52.3% |
| COc1ccc(S(=O)(=O)NC[C@H]2O[C@@H](n3cnc4c(=O)[nH]cnc43)[C@H](O)[C@@H]2O)cc1[N+](=O)[O-] | mRNA cap guanine-N(7) methyltransferase (Homo sapiens, UniProt O43148) | inactive |
| CNc1ncnc2c1ncn2[C@@H]1O[C@H](CNS(=O)(=O)c2ccc(C)c(Cl)c2)[C@@H](O)[C@H]1O | mRNA cap guanine-N(7) methyltransferase (Homo sapiens, UniProt O43148) | 92% |
| COc1ccc(S(=O)(=O)N(C)C[C@H]2O[C@@H](n3cc(C#Cc4cnc5ccccc5c4)c4c(N)ncnc43)[C@H](O)[C@@H]2O)cc1[N+](=O)[O-] | mRNA cap guanine-N(7) methyltransferase (Homo sapiens, UniProt O43148) | 49.9% |
| CNc1ncnc2c1ncn2[C@@H]1O[C@H](CNS(=O)(=O)c2ccc(OC)c(C#N)c2)[C@@H](O)[C@H]1O | mRNA cap guanine-N(7) methyltransferase (Homo sapiens, UniProt O43148) | inactive |
| COc1ccc(S(=O)(=O)N(C)C[C@H]2O[C@@H](n3cc(C#Cc4cnc5ccccc5c4)c4c(N)ncnc43)[C@H](O)[C@@H]2O)cc1C#N | mRNA cap guanine-N(7) methyltransferase (Homo sapiens, UniProt O43148) | 53% |
| COc1ccc(S(=O)(=O)N(C)C[C@H]2O[C@@H](n3cc(C#Cc4ccccc4)c4c(N)ncnc43)[C@H](O)[C@@H]2O)cc1[N+](=O)[O-] | mRNA cap guanine-N(7) methyltransferase (Homo sapiens, UniProt O43148) | inactive |
| CNc1ncnc2c1ncn2[C@@H]1O[C@H](CNS(=O)(=O)c2ccc(Br)c([N+](=O)[O-])c2)[C@@H](O)[C@H]1O | mRNA cap guanine-N(7) methyltransferase (Homo sapiens, UniProt O43148) | 57% |

Give inhibition for each listed item.
1. CCN(C[C@H]1O[C@@H](n2cnc3c(NC)ncnc32)[C@H](O)[C@@H]1O)S(=O)(=O)c1ccc(OC)c(C#N)c1
2. Cc1ccc(S(=O)(=O)N(C)C[C@H]2O[C@@H](n3cc(C#Cc4cnc5ccccc5c4)c4c(N)ncnc43)[C@H](O)[C@@H]2O)cc1[N+](=O)[O-]
3. CNc1ncnc2c1ncn2[C@@H]1O[C@H](CNS(=O)(=O)c2ccc(C)c([N+](=O)[O-])c2)[C@@H](O)[C@H]1O
4. Cc1cc(S(=O)(=O)NC[C@H]2O[C@@H](n3cnc4c(=O)[nH]cnc43)[C@H](O)[C@@H]2O)ccc1Cl
5. Cc1ccc(S(=O)(=O)N(C)C[C@H]2O[C@@H](n3cc(C#Cc4ccccc4)c4c(N)ncnc43)[C@H](O)[C@@H]2O)cc1[N+](=O)[O-]
6. CCN(C[C@H]1O[C@@H](n2cnc3c(=O)[nH]cnc32)[C@H](O)[C@@H]1O)S(=O)(=O)c1ccc(Cl)c(C)c1

[out]
55.9%
86.7%
66.4%
inactive
inactive
inactive
